B1: CDC25B (parent)
chain: FVDILESDLKDDDAVPPGMESLIS

Variants of: B1
Test: protein stability index of a GFP-peptide fusion (GPS, HEK-293T) (PSI 1-6); higher = more stable;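 further: lentivirally expressed fusions sorted by FACS into six bins by GFP to DsRed ratio, PSI derived from sequencing read proportions per bin multiplied by bin number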
Conditions: c terminus: a fixed tail appended
Classify as follows. Reported protein stability index greater than or equal to 3: True. Reported protein stability index below: False.

| sequenceText | qualitativeLabel |
| --- | --- |
| FVDILESDLKDDDAVPPGMESGIS | True |
| FVDILEKDLKDDDAVPPGMESLIS | False |
| FVDILESDLKDDDAVPPGMESNIS | False |
| FVDILESDLKDDDAVLPGMESLIS | False |
| FVDILESDLKDDDRVPPGMESLIS | False |
| FVDVLESDLKDDDAVPPGMESLIS | True |
| FVDILEEDLKDDDAVPPGMESLIS | True |
| FVDILESDLKDDDAVPPIMESLIS | False |
| FVDILEQDLKDDDAVPPGMESLIS | True |
| FVDILESDLKGDDAVPPGMESLIS | False |
| FVDILESDLKDDDAVSPGMESLIS | False |
| FVDILESDLKTDDAVPPGMESLIS | True |
| FVDILESDLKDDDLVPPGMESLIS | False |
| FVDILESDLKDDDAVPPGMESLDS | True |
| FVDILESDLKDDDAVWPGMESLIS | False |
| FVDILESDLKDDDAVPPGMASLIS | False |
| FVDILESDLKDDDAVPPPMESLIS | True |
| FVDILESDLKDDDADPPGMESLIS | True |
| FVDILESDLKDDDAVPPGMENLIS | False |
| FVDILESDFKDDDAVPPGMESLIS | False |
| FVDILESDLKDDHAVPPGMESLIS | False |
| FVDIAESDLKDDDAVPPGMESLIS | True |
